- assay-system: σ70, native, untagged (pLN12), P00579
- Sequence (P00579 whole entry): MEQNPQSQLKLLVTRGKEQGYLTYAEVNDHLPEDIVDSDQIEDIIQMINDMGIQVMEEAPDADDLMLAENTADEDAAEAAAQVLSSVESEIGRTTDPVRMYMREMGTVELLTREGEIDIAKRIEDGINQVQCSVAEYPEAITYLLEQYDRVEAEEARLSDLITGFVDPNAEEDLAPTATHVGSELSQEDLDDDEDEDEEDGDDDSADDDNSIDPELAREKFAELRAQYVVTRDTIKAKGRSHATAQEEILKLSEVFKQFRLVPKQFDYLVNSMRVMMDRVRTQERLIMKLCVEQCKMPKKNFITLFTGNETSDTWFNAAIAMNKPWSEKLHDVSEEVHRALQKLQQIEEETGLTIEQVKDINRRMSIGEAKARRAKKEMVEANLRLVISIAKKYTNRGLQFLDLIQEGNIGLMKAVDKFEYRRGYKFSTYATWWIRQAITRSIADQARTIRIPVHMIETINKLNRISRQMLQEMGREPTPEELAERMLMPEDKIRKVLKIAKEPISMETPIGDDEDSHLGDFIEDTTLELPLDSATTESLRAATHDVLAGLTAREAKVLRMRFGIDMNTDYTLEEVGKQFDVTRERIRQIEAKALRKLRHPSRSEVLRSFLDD
parameter: Growth at 42° C. with plasmid β′ as sole source of β′ (strain RL602)

| protein | test-result |
| --- | --- |
| β′ mutant N274D (protein) MKDLLKFLKAQTKTEEFDAIKIALASPDMIRSWSFGEVKKPETINYRTFKPERDGLFCARIFGPVKDYECLCGKYKRLKHRGVICEKCGVEVTQTKVRRERMGHIELASPTAHIWFLKSLPSRIGLLLDMPLRDIERVLYFESYVVIEGGMTNLERQQILTEEQYLDALEEFGDEFDAKMGAEAIQALLKSMDLEQECEQLREELNETNSETKRKKLTKRIKLLEAFVQSGNKPEWMILTVLPVLPPDLRPLVPLDGGRFATSDLNDLYRRVIDRNNRLKRLLDLAAPDIIVRNEKRMLQEAVDALLDNGRRGRAITGS | + |
